Assay: Measurement of logP values by HPLC on reversed phase columns (EEC directive 79/831 Annex V.A8)
Assay type: physicochemical
Conditions: method [a]: pH 2,7, 0.1% formic acid in water / acetonitrile, linear gradient 10% to 95% acetonitrile
Protocol: Measurement of logP values was performed according EEC directive 79/831 Annex V.A8 by HPLC (High Performance Liquid Chromatography) on reversed phase columns with the following methods: ^[a] Measurement of LC-MS was done at pH 2,7 with 0.1% formic acid in water and with acetonitrile (contains 0.1% formic acid) as eluent with a linear gradient from 10% acetonitrile to 95% acetonitrile. […]
Quantity: LogP

In [3]: df
Out[3]:
                                   compound  assay_value
0  CC(C)C1=NOC(C(=O)Nc2nc(CON=C(c3ccccc3)c3nnnn3C)cs2)C1 (centres unmarked)     2.92^[a]
1  COc1ccc(C2=NOC(C(=O)Nc3nc(CON=C(c4ccccc4)c4nnnn4C)cs3)C2)cc1 (centres unmarked)     3.25^[a]

Lookup: Return reported LogP; argument: CC1=NOC(C)(C(=O)Nc2nc(CON=C(c3ccccc3)c3nnnn3C)cs2)C1 (centres unmarked)
Found: 2.69^[a]

----------
test system: Phytophthora infestans; assay type: in vivo; conditions: tomato plants, preventive spray, 100 ppm of active ingredient, evaluated 7 days after inoculation
The following compounds are listed with their measured Eff. % values.
The answer is to be given in %; state only the numeric part.

>>> df
                                   compound  quantity  assay_value
0  Cn1nnnc1C(=NOCc1csc(NC(=O)C2(C)CC(c3ccccc3)=NO2)n1)c1ccccc1 (stereo not drawn)    Eff. %          100
1  COc1ccc(C2=NOC(C(=O)Nc3nc(CON=C(c4ccccc4)c4nnnn4C)cs3)C2)cc1 (stereo not drawn)    Eff. %           85
2  CC1=NOC(C(=O)Nc2nc(CON=C(c3ccccc3)c3nnnn3C)cs2)C1 (stereo not drawn)    Eff. %           93
3  Cc1nnnn1C(=NOCc1csc(NC(=O)C2CC(c3ccccc3)=NO2)n1)c1ccccc1 (stereo not drawn)    Eff. %           95
4  Cn1nnnc1C(=NOCc1csc(NC(=O)C2CC(c3ccccc3Cl)=NO2)n1)c1ccccc1 (stereo not drawn)    Eff. %           90

Would you kindly look at the next entry?
Lookup: Given the entry Cc1nnnn1C(=NOCc1csc(NC(=O)C2CC(C(C)C)=NO2)n1)c1ccccc1 (stereo not drawn) , report its measured Eff. %.
Found: 85

----------
Listed molecules paired with reported Eff. %
system: Phytophthora infestans; assay type: in vivo; conditions: tomato plants, preventive spray, 100 ppm of active ingredient, evaluated 7 days after inoculation
Give the value in % but do not write % after it.

Lookup: Sample Cc1nnnn1C(=NOCc1csc(NC(=O)C2CC(c3ccccc3Cl)=NO2)n1)c1ccccc1 (stereo not drawn) — what was its Eff. %?
Found: 90

Lookup: Please give the measured Eff. % for this molecule: Cc1nnnn1C(=NOCc1csc(NC(=O)C2CC(c3c(F)cccc3Cl)=NO2)n1)c1ccccc1 (stereo not drawn)
Found: 90

Lookup: Reported Eff. %, molecule Cn1nnnc1C(=NOCc1cccc(NC(=O)C2(C)CC(c3ccccc3)=NO2)n1)c1ccccc1 (stereo not drawn) : ____
Found: 89

----------
Test: Measurement of logP values by HPLC on reversed phase columns (EEC directive 79/831 Annex V.A8)
Type: physicochemical
Settings: method [a]: pH 2,7, 0.1% formic acid in water / acetonitrile, linear gradient 10% to 95% acetonitrile
Protocol: Measurement of logP values was performed according EEC directive 79/831 Annex V.A8 by HPLC (High Performance Liquid Chromatography) on reversed phase columns with the following methods: ^[a] Measurement of LC-MS was done at pH 2,7 with 0.1% formic acid in water and with acetonitrile (contains 0.1% formic acid) as eluent with a linear gradient from 10% acetonitrile to 95% acetonitrile. […]
Quantity: LogP

Here is how some molecules turned out for LogP.
>>> df
                                   molecule  assay_value
0  Cn1nnnc1C(=NOCc1csc(NC(=O)C2CC(c3cc(F)ccc3F)=NO2)n1)c1ccccc1 (stereo not shown)     3.39^[a]
1  Cc1nnnn1C(=NOCc1csc(NC(=O)C2CC(c3cc(F)ccc3F)=NO2)n1)c1ccccc1 (stereo not shown)     3.46^[a]

Lookup: So what does the record say about LogP for Cn1nnnc1C(=NOCc1csc(NC(=O)C2CC(c3c(F)cccc3Cl)=NO2)n1)c1ccccc1 (stereo not shown) ?
Found: 3.44^[a]

Lookup: What value of LogP has been reported for the following molecule? Cc1nnnn1C(=NOCc1csc(NC(=O)C2CC(c3ccccc3Cl)=NO2)n1)c1ccccc1 (stereo not shown)
Found: 3.55^[a]

----------
assay: Measurement of logP values by HPLC on reversed phase columns (EEC directive 79/831 Annex V.A8); assay type: physicochemical; conditions: method [a]: pH 2,7, 0.1% formic acid in water / acetonitrile, linear gradient 10% to 95% acetonitrile
Quantity: LogP

Solved entries (count: 3):
>>> print(df.to_string())
                                   compound  assay_value
0  Cc1nnnn1C(=NOCc1csc(NC(=O)C2CC(c3ccccc3F)=NO2)n1)c1ccccc1 (centres unmarked) [Example 12]     3.31^[a]
1  COc1ccc(C2=NOC(C(=O)Nc3nc(CON=C(c4ccccc4)n4nnnc4C)cs3)C2)cc1 (centres unmarked) [Example 23]     3.29^[a]
2  CC1=NOC(C)(C(=O)Nc2nc(CON=C(c3ccccc3)n3nnnc3C)cs2)C1 (centres unmarked) [Example 7]     2.73^[a]

Lookup: // LogP lookup, key: CC1=NOC(C(=O)Nc2nc(CON=C(c3ccccc3)c3nnnn3C)cs2)C1 (centres unmarked) [Example 16]
Found: 2.35^[a]

Lookup: Requested field: LogP. Item: Cn1nnnc1C(=NOCc1csc(NC(=O)C2CC(c3ccccc3Cl)=NO2)n1)c1ccccc1 (centres unmarked) [Example 15]
Found: 3.48^[a]

Values compiled from patent US20140206726A1.
